# tgt: GPR39 (Homo sapiens, UniProt O43194)
# procedure_summary: IP1 assay (HTRF), HEK293s-hGPR39 cells
# Format: cell-based
# Design: Full length human (AF034633), rat (DM091294) and mouse (BC085285) GPR39; expressed in transfected cells; host or cells: HEK293s (ATCC CRL-1573), pIRESneo3 vector, selected clones
# test_parameters: absence (w/o) of Zn^2+; read-out: EC50
Listed here are compounds together with their documented EC50.

{"columns": ["compound", "EC50"],
 "data": [
  ["Cc1nc(-c2nc3c(c(=O)[nH]2)CN(C(=O)c2cccc(Cl)c2F)CC3)cs1 [AZ7914]", "> 33 µM"],
  ["Cc1nc2c(C(=O)O)cnn2c(O)c1Cc1ccc(Cl)cc1 [AZ4237]", "> 33 µM"]
]}

* * *

# tgt: GPR39 (Homo sapiens)
# procedure_summary: Back-scattering interferometry (BSI) binding assay, HEK293s-hGPR39 membranes
# Parameters: Full length human (AF034633), rat (DM091294) and mouse (BC085285) GPR39; expressed in transfected cells; host or cells: HEK293s (ATCC CRL-1573), pIRESneo3 vector, selected clones
# test_parameters: presence of 5 μM Zn^2+; one site binding model; read-out: K D ± SE

{"columns": ["smiles_code", "value_units", "Kd"],
 "data": [
  ["Cc1nc(-c2nc3c(c(=O)[nH]2)CN(C(=O)c2cccc(Cl)c2F)CC3)cs1", "nM", 192],
  ["Cc1nc2c(C(=O)O)cnn2c(O)c1Cc1ccc(Cl)cc1", "nM", 48],
  ["N#Cc1ccc(OCCn2ccnc2)c(OCCn2ccnc2)c1", "nM", 233]
]}

* * *

# tgt: GPR39 (Homo sapiens, UniProt O43194)
# procedure_summary: DMR positive allosteric modulator (PAM) experiments, compound and Zn^2+ interdependencies
# Type: cell-based
# Design: Full length human (AF034633), rat (DM091294) and mouse (BC085285) GPR39; expressed in transfected cells
# test_parameters: [Zn2+] μM: 5e-7
Measured EC50, listed per entry for reference.
value_type: EC50

{"columns": ["molecule", "value_type", "obs_value"],
 "data": [
  ["Cc1nc2c(C(=O)O)cnn2c(O)c1Cc1ccc(Cl)cc1 [AZ4237]", "EC50", "> 33 µM"],
  ["Cc1nc(-c2nc3c(c(=O)[nH]2)CN(C(=O)c2cccc(Cl)c2F)CC3)cs1 [AZ7914]", "EC50", "> 33 µM"],
  ["N#Cc1ccc(OCCn2ccnc2)c(OCCn2ccnc2)c1 [AZ1395]", "EC50", "2.4 µM"]
]}

* * *

# tgt: GPR39 (Homo sapiens)
# procedure_summary: Dynamic mass redistribution (DMR) label-free assay, HEK293s-hGPR39 cells
# Format: cell-based
# Parameters: Full length human (AF034633), rat (DM091294) and mouse (BC085285) GPR39; expressed in transfected cells; host or cells: HEK293s (ATCC CRL-1573), pIRESneo3 vector, selected clones
# test_parameters: presence of 5 μM Zn^2+; read-out: EC50
# Text: Full length human (AF034633), rat (DM091294) and mouse (BC085285) GPR39 (GeneArt–Life Technologies, Carlsbad, CA) were subcloned into the pIRESneo3 vector (Clontech, Mountain View, CA). […] Individual clones were isolated using flow cytometry with a FACSVantage SE DIVA (Becton Dickinson, Franklin Lakes, NJ) and clones were chosen based on responses to Zn^2+ measured in a cAMP assay (see below). […]

{"columns": ["smiles_code", "EC50 (nM)"],
 "data": [
  ["N#Cc1ccc(OCCn2ccnc2)c(OCCn2ccnc2)c1", 36]
]}

* * *

Kd reference
# procedure_summary: Isothermal titration calorimetry (ITC) of compound with ZnCl2
# test_parameters: ITC at 30°C; single site binding model; ± SD; read-out: K D (Zn^2+-interaction)

{"columns": ["smiles_code", "Kd, µM"],
 "data": [
  ["Cc1nc2c(C(=O)O)cnn2c(O)c1Cc1ccc(Cl)cc1", 8.72],
  ["N#Cc1ccc(OCCn2ccnc2)c(OCCn2ccnc2)c1", 52.1],
  ["Cc1nc(-c2nc3c(c(=O)[nH]2)CN(C(=O)c2cccc(Cl)c2F)CC3)cs1", 30.6]
]}

* * *

# tgt: mGPR39 (Mus musculus, UniProt Q5U431)
# Construct: Full length human (AF034633), rat (DM091294) and mouse (BC085285) GPR39; expressed in transfected cells; host or cells: HEK293s (ATCC CRL-1573), pIRESneo3 vector, selected clones
# Sequence (Q5U431 whole entry): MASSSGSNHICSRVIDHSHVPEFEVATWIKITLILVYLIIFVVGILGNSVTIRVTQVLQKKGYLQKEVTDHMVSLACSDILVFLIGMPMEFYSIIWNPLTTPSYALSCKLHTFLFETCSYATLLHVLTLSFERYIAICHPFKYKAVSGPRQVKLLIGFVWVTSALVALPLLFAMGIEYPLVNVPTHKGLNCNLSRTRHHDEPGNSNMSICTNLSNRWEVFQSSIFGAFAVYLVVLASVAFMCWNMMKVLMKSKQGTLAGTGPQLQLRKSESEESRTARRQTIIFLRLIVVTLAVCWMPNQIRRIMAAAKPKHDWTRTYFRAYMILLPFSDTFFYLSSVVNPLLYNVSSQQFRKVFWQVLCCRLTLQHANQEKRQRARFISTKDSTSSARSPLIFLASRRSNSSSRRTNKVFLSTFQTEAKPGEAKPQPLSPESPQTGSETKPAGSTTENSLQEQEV
# procedure_summary: DMR label-free assay, HEK293s cells transfected with mouse GPR39
# Assay type: cell-based
# test_parameters: absence (w/o) of Zn^2+; read-out: EC50
Items are presented alongside their recorded EC50.
value_type: EC50

{"columns": ["compound", "obs_value"],
 "data": [
  ["Cc1nc2c(C(=O)O)cnn2c(O)c1Cc1ccc(Cl)cc1 [AZ4237]", "> 33 µM"],
  ["N#Cc1ccc(OCCn2ccnc2)c(OCCn2ccnc2)c1 [AZ1395]", "10 µM"],
  ["Cc1nc(-c2nc3c(c(=O)[nH]2)CN(C(=O)c2cccc(Cl)c2F)CC3)cs1 [AZ7914]", "> 33 µM"]
]}

* * *

Listing of entries alongside the reported EC50.
# tgt: GPR39 (Homo sapiens, UniProt O43194)
# procedure_summary: DMR positive allosteric modulator (PAM) experiments, compound and Zn^2+ interdependencies
# Format: cell-based
# Set-up: Full length human (AF034633), rat (DM091294) and mouse (BC085285) GPR39; expressed in transfected cells
# test_parameters: [Zn2+] μM: 1e-7

{"columns": ["smiles_code", "tgt", "EC50"],
 "data": [
  ["Cc1nc(-c2nc3c(c(=O)[nH]2)CN(C(=O)c2cccc(Cl)c2F)CC3)cs1", "GPR39 (Homo sapiens, UniProt O43194)", "> 33 µM"],
  ["Cc1nc2c(C(=O)O)cnn2c(O)c1Cc1ccc(Cl)cc1", "GPR39 (Homo sapiens, UniProt O43194)", "> 33 µM"],
  ["N#Cc1ccc(OCCn2ccnc2)c(OCCn2ccnc2)c1", "GPR39 (Homo sapiens, UniProt O43194)", "2.6 µM"]
]}

* * *

# tgt: GPR39 (Homo sapiens, UniProt O43194)
# procedure_summary: IP1 assay (HTRF), HEK293s-hGPR39 cells
# Assay type: cell-based
# Set-up: Full length human (AF034633), rat (DM091294) and mouse (BC085285) GPR39; expressed in transfected cells; host or cells: HEK293s (ATCC CRL-1573), pIRESneo3 vector, selected clones
# test_parameters: Zn^2+ by itself; read-out: EC50
pEC50: −log10 of the molar value.
value_type: pEC50

{"columns": ["smiles_code", "tgt", "obs_value"],
 "data": [
  ["[Zn+2]", "GPR39 (Homo sapiens, UniProt O43194)", 4.62]
]}

* * *

# tgt: GPR39 (Homo sapiens)
# procedure_summary: cAMP assay (HTRF), HEK293s-hGPR39 cells
# Assay type: cell-based
# Design: Full length human (AF034633), rat (DM091294) and mouse (BC085285) GPR39; expressed in transfected cells; host or cells: HEK293s (ATCC CRL-1573), pIRESneo3 vector, selected clones
# test_parameters: Zn^2+ by itself; read-out: EC50
value_type: EC50 (µM)

{"columns": ["molecule", "value_type", "obs_value"],
 "data": [
  ["[Zn+2] [Zn^2+]", "EC50", 12]
]}

* * *

# tgt: GPR39 (Homo sapiens, UniProt O43194)
# Sequence (O43194 1-453): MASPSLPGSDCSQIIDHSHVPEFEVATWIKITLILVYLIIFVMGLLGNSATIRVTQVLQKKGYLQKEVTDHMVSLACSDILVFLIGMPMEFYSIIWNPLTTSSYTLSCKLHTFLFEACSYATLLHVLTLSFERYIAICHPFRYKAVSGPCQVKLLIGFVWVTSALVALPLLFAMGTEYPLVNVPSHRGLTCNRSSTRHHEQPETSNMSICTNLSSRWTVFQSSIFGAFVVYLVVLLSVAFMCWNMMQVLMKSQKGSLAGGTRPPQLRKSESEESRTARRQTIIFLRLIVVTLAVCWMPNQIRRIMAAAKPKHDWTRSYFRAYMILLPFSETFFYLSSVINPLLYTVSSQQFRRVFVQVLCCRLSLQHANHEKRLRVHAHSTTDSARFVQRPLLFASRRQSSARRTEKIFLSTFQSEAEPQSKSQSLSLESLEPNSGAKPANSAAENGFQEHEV
# procedure_summary: cAMP assay (HTRF), HEK293s-hGPR39 cells
# Assay type: cell-based
# Parameters: Full length human (AF034633), rat (DM091294) and mouse (BC085285) GPR39; expressed in transfected cells; host or cells: HEK293s (ATCC CRL-1573), pIRESneo3 vector, selected clones
# test_parameters: presence of 5 μM Zn^2+; read-out: EC50
pEC50: −log10 of the molar value.

{"columns": ["smiles_code", "tgt", "pEC50"],
 "data": [
  ["N#Cc1ccc(OCCn2ccnc2)c(OCCn2ccnc2)c1", "GPR39 (Homo sapiens, UniProt O43194)", 6.31]
]}
